target: Human 5-HT6 Receptor (Homo sapiens, UniProt P50406); assay: Nova Screen binding assay for human 5-HT6 receptor ([3H]LSD radioligand binding); conditions: human recombinant receptor expressed in HEK293 cells; [3H]LSD 1.5 nM; 60 minutes at 37° C.; read-out: Ki, radioligand binding data at 5ht6R (h)
Sequence (P50406 whole entry): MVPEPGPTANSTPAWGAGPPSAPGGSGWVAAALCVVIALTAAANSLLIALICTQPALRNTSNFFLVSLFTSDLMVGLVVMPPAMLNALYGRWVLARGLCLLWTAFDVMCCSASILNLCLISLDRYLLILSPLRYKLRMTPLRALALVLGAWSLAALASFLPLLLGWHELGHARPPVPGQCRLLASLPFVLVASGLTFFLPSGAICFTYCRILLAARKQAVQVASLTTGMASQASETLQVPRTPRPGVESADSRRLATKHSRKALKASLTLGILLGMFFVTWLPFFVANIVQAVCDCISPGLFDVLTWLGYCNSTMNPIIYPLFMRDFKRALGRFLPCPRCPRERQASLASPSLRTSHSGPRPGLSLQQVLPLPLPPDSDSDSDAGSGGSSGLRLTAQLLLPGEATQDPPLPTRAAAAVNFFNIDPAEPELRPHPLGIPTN
Property: pKi; scope: individual compounds
When answering, recall that pKi equals minus log10 of the concentration in mol/L, and write that number alone.

Consider the worked cases shown below.
[[record]]
given_smiles = "COc1ccc2c(ccn2S(=O)(=O)c2ccc(C)c(NC3CCN(C)CC3)c2)c1"
experimental_target = "Human 5-HT6 Receptor (Homo sapiens, UniProt P50406)"
numeric_value = 7.68

[[record]]
given_smiles = "COc1ccc2c(ccn2S(=O)(=O)c2cccc(NC3CCN(C)CC3)c2)c1"
experimental_target = "Human 5-HT6 Receptor (Homo sapiens, UniProt P50406)"
numeric_value = 7.90

[[record]]
given_smiles = "CN1CCC(Nc2cccc(S(=O)(=O)n3ccc4cc(Br)ccc43)c2)CC1"
experimental_target = "Human 5-HT6 Receptor (Homo sapiens, UniProt P50406)"
numeric_value = 7.99

[[record]]
given_smiles = "COc1ccc(S(=O)(=O)n2ccc3ccccc32)cc1NC1CCN(C)CC1"
experimental_target = "Human 5-HT6 Receptor (Homo sapiens, UniProt P50406)"
numeric_value = 8.89

[[record]]
given_smiles = "CN1CCC(Nc2cccc(S(=O)(=O)n3ccc4ccccc43)c2)CC1"
experimental_target = "Human 5-HT6 Receptor (Homo sapiens, UniProt P50406)"
numeric_value = 8.50


# context switch: different compound, same pKi
Kindly indicate its recorded pKi. Item: `CN1CCC(Nc2cccc(S(=O)(=O)n3ccc4cc(F)ccc43)c2)CC1` 8.15
